Numbers sourced from patent US10428080B2.

target entity: TBK1 (Homo sapiens, UniProt Q9UHD2)
Sequence (Q9UHD2 1-729): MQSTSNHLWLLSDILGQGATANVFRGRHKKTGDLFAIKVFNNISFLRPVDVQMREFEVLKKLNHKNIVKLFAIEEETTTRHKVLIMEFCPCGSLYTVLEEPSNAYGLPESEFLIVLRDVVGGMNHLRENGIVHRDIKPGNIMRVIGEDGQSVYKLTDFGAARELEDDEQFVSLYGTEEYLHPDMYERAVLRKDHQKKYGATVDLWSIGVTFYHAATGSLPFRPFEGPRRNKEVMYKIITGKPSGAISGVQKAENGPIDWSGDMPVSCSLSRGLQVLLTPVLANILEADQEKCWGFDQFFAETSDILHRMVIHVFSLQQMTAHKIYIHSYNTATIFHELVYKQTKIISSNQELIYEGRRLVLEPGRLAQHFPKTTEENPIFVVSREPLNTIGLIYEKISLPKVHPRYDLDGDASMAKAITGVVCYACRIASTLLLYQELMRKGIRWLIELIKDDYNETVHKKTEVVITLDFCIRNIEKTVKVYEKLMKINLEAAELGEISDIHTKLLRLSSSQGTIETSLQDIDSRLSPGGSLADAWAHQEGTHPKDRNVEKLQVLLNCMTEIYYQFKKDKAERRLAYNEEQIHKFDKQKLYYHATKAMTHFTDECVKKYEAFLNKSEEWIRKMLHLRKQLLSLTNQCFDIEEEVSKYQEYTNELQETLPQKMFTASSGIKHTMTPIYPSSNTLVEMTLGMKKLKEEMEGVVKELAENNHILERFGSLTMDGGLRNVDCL
assay summary: TBK Biochemical Assay
measurement context: read-out: TBK1 IC50
property measured: IC50

compound | IC50
COc1cc(C(=O)N2CCC(CO)C2)ccc1-c1cc2nccc(-c3ccc(N4CC[C@H](F)C4)c(C#N)c3)c2o1 (some centres unmarked) | < 100 nM

Sample COc1cc(C(=O)N(C)C)ccc1-c1cc2nccc(-c3ccc(OC4CN(C)C4)c(C#N)c3)c2o1 — what was its IC50?
< 100 nM

###

Here the recorded IC50 is given for each entry.
target entity: TBK1 (Homo sapiens, UniProt Q9UHD2)
Sequence (Q9UHD2 1-729): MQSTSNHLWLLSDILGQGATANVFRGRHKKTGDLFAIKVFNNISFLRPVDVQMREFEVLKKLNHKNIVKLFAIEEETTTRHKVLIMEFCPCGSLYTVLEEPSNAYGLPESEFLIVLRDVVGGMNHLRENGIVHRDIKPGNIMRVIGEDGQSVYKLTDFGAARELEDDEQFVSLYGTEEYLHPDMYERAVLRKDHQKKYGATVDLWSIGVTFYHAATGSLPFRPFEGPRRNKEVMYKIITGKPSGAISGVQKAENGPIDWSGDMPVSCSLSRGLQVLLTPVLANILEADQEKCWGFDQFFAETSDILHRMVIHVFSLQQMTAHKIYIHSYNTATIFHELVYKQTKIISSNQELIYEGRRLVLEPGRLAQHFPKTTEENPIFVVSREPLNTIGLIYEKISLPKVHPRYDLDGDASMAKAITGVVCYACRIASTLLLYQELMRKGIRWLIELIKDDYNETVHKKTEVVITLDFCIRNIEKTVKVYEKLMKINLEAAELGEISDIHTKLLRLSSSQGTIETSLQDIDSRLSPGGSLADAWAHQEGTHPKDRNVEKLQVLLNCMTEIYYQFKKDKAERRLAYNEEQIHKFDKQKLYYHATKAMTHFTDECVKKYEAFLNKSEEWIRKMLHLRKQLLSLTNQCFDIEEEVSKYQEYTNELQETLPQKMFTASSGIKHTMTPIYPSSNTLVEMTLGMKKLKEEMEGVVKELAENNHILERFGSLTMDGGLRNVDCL
assay summary: TBK Biochemical Assay
measurement context: read-out: TBK1 IC50
Structures can show the parent of a compound that is named as a salt.

molecule | target entity | IC50
COc1cc(C(=O)N2CC3COCC3C2)cnc1-c1cc2nccc(-c3ccc(NC4CCOCC4)c(C#N)c3)c2o1 (stereo not shown) | TBK1 (Homo sapiens, UniProt Q9UHD2) | < 100 nM

So what IC50 did COc1cc(C(=O)NC2CN3CCC2CC3)cnc1-c1cc2nccc(-c3ccc(N4CC[C@H](F)C4)c(C#N)c3)c2o1 (stereo partly shown) [Compound 439] get with TBK1 (Homo sapiens, UniProt Q9UHD2)?
< 100 nM

Find the measured IC50: item N#Cc1cc(-c2ccnc3cc(-c4ccc(N)cc4)oc23)ccc1OC1CCOCC1 , target or system TBK1 (Homo sapiens, UniProt Q9UHD2).
< 100 nM

Fill in the recorded IC50 for this molecule, with TBK1 (Homo sapiens, UniProt Q9UHD2) as test system: COc1cc(C(=O)N2CCC2)cnc1-c1cc2nccc(-c3ccc(OC4CCOCC4)c(C#N)c3)c2o1
< 100 nM

# value lookup — system TBK1 (Homo sapiens, UniProt Q9UHD2), readout IC50, item COc1cc(C(=O)N(C)C)cnc1-c1cc2ncc(OC)c(-c3ccc(NC4CCOCC4)c(C#N)c3)c2o1
100 to 1000 nM

// lookup IC50 | system=TBK1 (Homo sapiens, UniProt Q9UHD2) | key= COc1cc(C(=O)N(C)CCO)ncc1-c1cc2nccc(-c3ccc(OC4CCOCC4)c(C#N)n3)c2o1
< 100 nM

Give IC50 (TBK1 (Homo sapiens, UniProt Q9UHD2)) of the following molecule: COc1cc(C(=O)N(C)C)ccc1-c1cc2nccc(-c3ccc(OC4CCOC5(CC5)C4)c(C#N)c3)c2o1 (stereo not shown)
< 100 nM

Form field - read-out: IC50; system: TBK1 (Homo sapiens, UniProt Q9UHD2); submitted item: COc1cc(C(=O)N(C)C)cnc1-c1cc2nccc(-c3ncc(OC4CCOCC4)c(C#N)n3)c2o1
100 to 1000 nM

For the record COc1cc(C(=O)N2CCC(CO)C2)ccc1-c1cc2nccc(-c3ccc(NC4CCOCC4)c(C#N)c3)c2o1 (stereo not shown) , what value of IC50 is listed for TBK1 (Homo sapiens, UniProt Q9UHD2)?
< 100 nM

Param readout = IC50; param system = TBK1 (Homo sapiens, UniProt Q9UHD2); param query = COc1cc(C(=O)NC2CN3CCC2CC3)ccc1-c1cc2nccc(-c3ccc(N4CC[C@H](F)C4)c(C#N)c3)c2o1 (stereo partly shown) ; response: value
< 100 nM

I'm curious: which IC50 was measured for COc1cc(C(=O)NC2CCOCC2O)ccc1-c1cc2nccc(-c3ccc(OC4CCOCC4)c(C#N)c3)c2o1 (stereo not shown) tested on TBK1 (Homo sapiens, UniProt Q9UHD2)?
< 100 nM

Query IC50 on TBK1 (Homo sapiens, UniProt Q9UHD2) for COc1cc(C(=O)N(C)C)ncc1-c1cc2nccc(-c3ccc(NC4CCNC4)c(C#N)c3)c2o1 (stereo not shown)
< 100 nM

Lab request: please report IC50 under test system TBK1 (Homo sapiens, UniProt Q9UHD2) for COc1cc(C(=O)N2CCC(OC)CC2)ccc1-c1cc2nccc(-c3ccc(OC4CCOCC4)c(C#N)c3)c2o1
< 100 nM

Write down the reported IC50 of COc1cc(C(=O)N(C)C)ncc1-c1cc2nccc(-c3ccc(OC4CN(C)C4)c(C#N)c3)c2o1 , test system: TBK1 (Homo sapiens, UniProt Q9UHD2).
100 to 1000 nM

State its IC50 on TBK1 (Homo sapiens, UniProt Q9UHD2): COc1cc(C(=O)N(C)C)ccc1-c1cc2nccc(-c3cnc(OC4CCOCC4)c(C#N)c3)c2o1
< 100 nM

Item COc1cc(C(=O)N(C)C)ccc1-c1cc2nccc(-c3ccc(O[C@@H]4CCNC[C@@H]4F)c(C#N)c3)c2o1 [Compound 153, hydrochloride] with TBK1 (Homo sapiens, UniProt Q9UHD2) - IC50?
< 100 nM
